FYI, the data here is from ChEMBL document CHEMBL1201862.

test system: SK-OV-3; assay: NCI tumour cell line growth inhibition, 48 h
Activity calls are given as the source filed them. Cut-off read from the data, not from the text of the source: active = GI50 up to about 1.1 µM and inactive = higher.
Give GI50 for every item shown.

Some solved cases for reference:
MOLECULE: O=[N+]([O-])/C(Cl)=C(/C(Cl)=C(Cl)Cl)N1CCOCC1
GI50: 13.8 µM (inactive)
//
MOLECULE: COc1ccc(C2CCC(Cl)(OC)CC2C=O)cc1 (stereo unspecified)
GI50: > 100 µM (inactive)
//
MOLECULE: CNC1NC(=O)c2ccccc2N1Cc1ccc(F)cc1 (stereo unspecified)
GI50: > 100 µM (inactive)
//
MOLECULE: COc1ccc(/C=N/NC(=O)c2cnc3[nH]c(=O)n(C)c(=O)c3c2)cc1
GI50: 59.2 µM (inactive)
//
MOLECULE: CCN(CC)c1ccc2cc(C(=O)Nc3ccc(C)cc3)c(=N)oc2c1
GI50: > 100 µM (inactive)

# next molecule below
Item under review: COc1ccc2c3c1C(=O)CCCC3CO2 (stereo unspecified) . Reported GI50?
> 100 µM (inactive)

====

tested on: SF-295; assay: NCI tumour cell line growth inhibition, 48 h
Activity calls are given as the source filed them. Cut-off read from the data, not from the text of the source: active = GI50 up to about 1.1 µM and inactive = higher.
Hi! Could you answer with just one of these? Yes for active, No for inactive

Study these solved cases before continuing.
COMPOUND: COc1c(CC(C)=O)c2ccccc2n1C(C)=O
LABEL_CLASS: No

COMPOUND: O=c1[nH]c(=O)n(C2CC(O)C(CO)O2)cc1/C=C/Br (stereo unspecified)
LABEL_CLASS: No

COMPOUND: Cc1oc2nc(N(C)C)n3c(C)nnc3c2c1C
LABEL_CLASS: No

Now look at this one.
Write down the call the test reported for this compound. Item: Cc1cc(OP2(=O)NCc3ncccc3O2)ccc1Cl (stereo unspecified)
No

====

test system: OVCAR-3; experiment: NCI tumour cell line growth inhibition, 48 h
Active and inactive are the calls of the source. No stated cut-off is given here; in the data, active = GI50 up to about 1.1 µM and inactive = higher.
ATTRIBUTE_MEASURED: GI50

Quick batch: GI50 for everything below.
1. COC(=O)CC1C(COC(C)=O)OC(n2cc(C)c(=O)[nH]c2=O)C1OC(C)=O (stereo not given)
2. CN(C)Cc1cc(O)c(O)c(CN(C)C)c1
3. CCN(CC)CCCC(C)Nc1c(Sc2cnc3cc(Cl)ccc3c2NC(C)CCCN(CC)CC)cnc2cc(Cl)ccc12 (stereo not given)
4. NCC(O)CNCC/C=C\C/C=C\C/C=C\C/C=C\C/C=C\C/C=C\CCCCC/C=C\CCNCC(O)CN (stereo not given)

> 100 µM (inactive)
36.7 µM (inactive)
1.9 µM (inactive)
1.98 µM (inactive)

Quick batch: GI50 for everything below.
1. O=c1ncccn1C1C=C(CO)C(O)C1O (stereo not given)
2. O=C1C(c2ccc(Cl)cc2)=[N+]([O-])c2ccccc21
3. O=C1Oc2ccccc2C(=O)/C1=C/N1C(=O)N/C(=C\c2cccc(O)c2)C1=O
4. COc1c(CC(C)=O)c2ccccc2n1C(C)=O
5. O=C(CC(=O)C1CCOC1=O)C(=O)Nc1ccc(Cl)cc1Cl (stereo not given)

1. > 50 µM (inactive)
2. 13.6 µM (inactive)
3. > 100 µM (inactive)
4. > 100 µM (inactive)
5. > 100 µM (inactive)

# query: GI50 | item Clc1ccc(NCc2nnc(CCCCCCCCc3nnc(CNc4ccc(Cl)cc4)o3)o2)cc1 | system: OVCAR-3
> 100 µM (inactive)
